Data origin, for the record: patent US20250092086A1

test: Solubility profile of Compound 1 Form III in water, ethanol and methanol; format: physicochemical; settings: organic solvent or mixture, thermodynamic from solid; methanol, 10° C.
endpoint: solubility

Dear colleague, please send me the reported solubility for CC1=C(O)C(=O)C=C2C1=CC=C1[C@@]2(C)CC[C@@]2(C)[C@@H]3C[C@](C)(C(=O)O)CC[C@]3(C)CC[C@]12C [Compound 1 Form III] when you can.
27 to 33 mg/mL

###

test: Solubility study of Compound I Form I in various solvents and temperatures; format: physicochemical; conditions: organic solvent or mixture; Ethyl acetate, 10° C.
endpoint: solubility

Dear colleague, please send me the reported solubility for CC1=C(O)C(=O)C=C2C1=CC=C1[C@@]2(C)CC[C@@]2(C)[C@@H]3C[C@](C)(C(=O)O)CC[C@]3(C)CC[C@]12C [Compound 1 Form I] when you can.
20 to 40 mg/mL
